These data points were gathered from the supplement of paper PMC3334620.

assayed target: Upc2 (UniProt Q12151)
Sequence: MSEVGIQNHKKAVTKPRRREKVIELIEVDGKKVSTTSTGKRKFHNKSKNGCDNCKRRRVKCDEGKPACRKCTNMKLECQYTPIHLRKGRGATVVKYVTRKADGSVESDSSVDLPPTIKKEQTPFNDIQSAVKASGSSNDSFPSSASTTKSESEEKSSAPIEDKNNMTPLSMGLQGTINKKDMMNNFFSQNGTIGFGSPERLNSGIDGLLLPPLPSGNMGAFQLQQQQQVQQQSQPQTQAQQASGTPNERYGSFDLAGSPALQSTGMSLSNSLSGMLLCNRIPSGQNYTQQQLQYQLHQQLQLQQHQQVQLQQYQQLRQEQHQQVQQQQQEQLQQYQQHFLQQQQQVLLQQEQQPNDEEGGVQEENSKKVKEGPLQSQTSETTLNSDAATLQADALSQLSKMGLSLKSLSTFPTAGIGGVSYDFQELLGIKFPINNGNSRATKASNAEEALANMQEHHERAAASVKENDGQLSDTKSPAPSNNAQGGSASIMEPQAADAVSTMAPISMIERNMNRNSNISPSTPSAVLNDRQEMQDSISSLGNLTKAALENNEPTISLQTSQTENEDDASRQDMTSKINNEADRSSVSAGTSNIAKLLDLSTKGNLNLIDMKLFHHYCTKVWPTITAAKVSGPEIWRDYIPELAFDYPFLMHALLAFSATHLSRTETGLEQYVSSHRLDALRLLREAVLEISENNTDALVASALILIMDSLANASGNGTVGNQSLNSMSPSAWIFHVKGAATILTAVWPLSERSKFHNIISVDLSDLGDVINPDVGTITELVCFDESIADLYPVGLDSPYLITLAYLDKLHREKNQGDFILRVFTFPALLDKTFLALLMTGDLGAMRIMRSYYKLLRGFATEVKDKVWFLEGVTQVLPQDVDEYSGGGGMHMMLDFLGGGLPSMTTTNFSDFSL
assay summary: PBM E-score (8-mer binding enrichment) (E-score (-0.5 to 0.5)); higher = stronger / more preferred TF binding
condition set: protein concentration: 200 nM; construct: GST-full length
Over roughly 33,000 sequences, “E-score (-0.5 to 0.5)” has its median near -0.043; the highest 2% begin near 0.37. Many of the other results were omitted from the sample, so the highest values are more common in it than they were.
readout name: PBM E-score
Numbers only.

TGTAAACA    -0.0818
GCGAACGC    0.158
ACGAAGGA    0.379
ACGAACGC    0.323
GCCGAGAA    0.068
ACACGACA    0.221

I would be grateful if you could provide PBM E-score for each of the following entries.
1. GCACGAAC
2. CATAGGTC
3. ACTCGACA
4. CGGTTCAC
5. ACCGCCAG
6. GAACGACA

OUTPUT:
1. 0.25
2. -0.0923
3. 0.0576
4. -0.117
5. -0.0637
6. 0.437

I would be grateful if you could provide PBM E-score for each of the following entries.
1. GACTTAAC
2. GCATACAA

OUTPUT:
1: 0.00959; 2: -0.0164
